Target: Beta-3 Adrenergic Receptor (Homo sapiens (Human), UniProt P13945)
Sequence (P13945 whole entry, species assumed): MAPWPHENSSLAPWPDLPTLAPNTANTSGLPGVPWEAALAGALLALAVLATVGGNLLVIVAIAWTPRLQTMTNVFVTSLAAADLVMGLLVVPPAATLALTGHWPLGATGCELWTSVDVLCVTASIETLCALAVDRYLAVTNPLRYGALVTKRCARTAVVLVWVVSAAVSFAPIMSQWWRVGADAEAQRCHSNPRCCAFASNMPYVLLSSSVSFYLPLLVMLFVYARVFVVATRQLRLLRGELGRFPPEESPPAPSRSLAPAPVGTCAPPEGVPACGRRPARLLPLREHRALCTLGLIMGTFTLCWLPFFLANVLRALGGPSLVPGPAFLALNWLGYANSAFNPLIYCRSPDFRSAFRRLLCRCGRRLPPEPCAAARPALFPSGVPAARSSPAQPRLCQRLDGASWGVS
Experiment: Homogeneous Time-Resolved Fluorescence (HTRF) cAMP antagonist assay, IC50 determination
Settings: CHO-K1 cells stably expressing recombinant receptor, isoproterenol at EC90
Method: HTRF cAMP assays were performed according to manufacturer's instructions (Cisbio, cAMP Dynamic 2 Assay Kit; #62AM4PEJ). CHO-K1 cells stably expressing recombinant receptor were harvested and suspended in warm PBS to make a 300,000 cells/mL stock. […] Compounds were dissolved and serially diluted (5-fold) in DMSO to generate a 10-point dose response stock. […] The EC90 for isoproterenol, a beta-adrenergic agonist, was determined in separate experiments using standard methods to measure agonist potencies. […]
recorded-metric: IC50 (nM)

[
  {
    "molecule": "CCNS(=O)(=O)c1cccc(OC[C@@H](O)CNC2COC3(CCN(S(=O)(=O)c4cccc(-c5ccc(OCC#N)cc5)c4)CC3)C2)c1 (stereo partly drawn) [Compound 213]",
    "recorded-metric": "IC50",
    "test-result": 49.1
  },
  {
    "molecule": "CNS(=O)(=O)c1cccc(OC[C@@H](O)CN[C@H]2COC3(CCN(S(=O)(=O)c4ccc(OC)c(-c5ccc(C6(N)CC6)cc5)c4)CC3)C2)c1 [Compound 464]",
    "recorded-metric": "IC50",
    "test-result": 13.9
  },
  {
    "molecule": "CNS(=O)(=O)c1cccc(OC[C@@H](O)CN[C@H]2COC3(CCN(S(=O)(=O)c4cnc5[nH]cnc5c4C)CC3)C2)c1 [Compound 519]",
    "recorded-metric": "IC50",
    "test-result": 68.4
  },
  {
    "molecule": "CNS(=O)(=O)c1cccc(OC[C@@H](O)CN[C@@H]2COC3(CCN(S(=O)(=O)c4cccc(-c5ccc(CN)cc5)c4OC)CC3)C2)c1 [Compound 448]",
    "recorded-metric": "IC50",
    "test-result": 32
  },
  {
    "molecule": "CNS(=O)(=O)c1cccc(OC[C@@H](O)CN[C@H]2COC3(CCN(S(=O)(=O)c4cccc(-c5ccc(S(N)(=O)=O)cc5)c4)CC3)C2)c1 [Compound 292]",
    "recorded-metric": "IC50",
    "test-result": 30.1
  }
]

A = CNS(=O)(=O)c1cccc(OC[C@@H](O)CNC2COC3(CCN(S(=O)(=O)c4cc(S(C)(=O)=O)ccc4Cl)CC3)C2)c1 (stereo partly drawn) [Compound 203]
B = CNS(=O)(=O)c1cccc(OC[C@@H](O)CN[C@H]2COC3(CCN(S(=O)(=O)c4ccc5ccccc5c4)CC3)C2)c1 [Compound 30]
Prompt: I need your help: which of the pair A , B has higher IC50? Choose, then provide that item's label.
Completion: A

----------
Target: Beta-3 Adrenergic Receptor (Homo sapiens (Human), UniProt P13945)
Experiment: Homogeneous Time-Resolved Fluorescence (HTRF) cAMP antagonist assay, IC50 determination
Type: cell-based
Settings: CHO-K1 cells stably expressing recombinant receptor, isoproterenol at EC90
Protocol: HTRF cAMP assays were performed according to manufacturer's instructions (Cisbio, cAMP Dynamic 2 Assay Kit; #62AM4PEJ). CHO-K1 cells stably expressing recombinant receptor were harvested and suspended in warm PBS to make a 300,000 cells/mL stock. […] Compounds were dissolved and serially diluted (5-fold) in DMSO to generate a 10-point dose response stock. […] The EC90 for isoproterenol, a beta-adrenergic agonist, was determined in separate experiments using standard methods to measure agonist potencies. […]
pIC50: −log10 of the molar value.
recorded-metric: pIC50

For orientation, consider the following solved cases.
[
  {
    "compound": "CCC(C)(C)c1ccc(S(=O)(=O)N2CCC3(CC2)CC(NC[C@H](O)COc2cccc(S(=O)(=O)NC)c2)CO3)cc1 (some centres unmarked)",
    "pIC50": 7.44
  },
  {
    "compound": "CNS(=O)(=O)c1cccc(OC[C@@H](O)CN[C@H]2COC3(CCN(S(=O)(=O)c4ccc(OC)c(C)c4)CC3)C2)c1",
    "pIC50": 8.03
  },
  {
    "compound": "CNS(=O)(=O)c1cccc(OC[C@@H](O)CNC2COC3(CCN(S(=O)(=O)c4ccc(C(=O)N(C)C)cc4)CC3)C2)c1 (some centres unmarked)",
    "pIC50": 6.97
  }
]

1 = CNS(=O)(=O)c1cccc(OC[C@@H](O)CN[C@H]2COC3(CCN(S(=O)(=O)c4cnc5c(c4)N(C)C[C@H](C)O5)CC3)C2)c1
2 = CNS(=O)(=O)c1cccc(OC[C@@H](O)CN[C@H]2COC3(CCN(S(=O)(=O)c4cnc5c(c4)OCCO5)CC3)C2)c1
3 = CNS(=O)(=O)c1cccc(OC[C@@H](O)CNC2COC3(CCN(S(=O)(=O)c4cc(Cl)ccc4F)CC3)C2)c1 (some centres unmarked)
4 = CN(C)CCCNS(=O)(=O)c1cccc(OC[C@@H](O)CNC2COC3(CCN(S(=O)(=O)c4ccc5c(c4)NC(=O)CO5)CC3)C2)c1 (some centres unmarked)
5 = C[C@H](O)CNS(=O)(=O)c1cccc(OC[C@@H](O)CN[C@H]2COC3(CCN(S(=O)(=O)c4cnc5c(c4)N(C)CCO5)CC3)C2)c1
Prompt: # rank by pIC50, ascending (min first) Hello, could you send the labels back in the order asked? Thank you.
Completion: 4, 5, 2, 1, 3
